Target: atypical chemokine receptor ACKR3 (formerly CXCR7) (human, UniProt P25106 1-362)
Sequence (P25106 whole entry): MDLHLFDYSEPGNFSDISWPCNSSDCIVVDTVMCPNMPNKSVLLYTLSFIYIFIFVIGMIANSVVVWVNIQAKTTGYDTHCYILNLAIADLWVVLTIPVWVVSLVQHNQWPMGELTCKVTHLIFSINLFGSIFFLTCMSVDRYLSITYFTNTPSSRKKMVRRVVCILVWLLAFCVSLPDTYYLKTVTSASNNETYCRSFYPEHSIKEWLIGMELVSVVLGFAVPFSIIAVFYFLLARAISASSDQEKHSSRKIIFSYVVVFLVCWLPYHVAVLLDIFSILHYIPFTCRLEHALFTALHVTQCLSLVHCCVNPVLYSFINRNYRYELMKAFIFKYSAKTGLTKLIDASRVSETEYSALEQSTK
Experiment: cell-based or functional assay
No end group written: not given here.
Please respond with reported Supplementary Table 9: EC50 of β-arrestin-1 recruitment to ACKR3, HEK cells for every item in the list.
Give bare numbers, in nM.

Example binders with recorded Supplementary Table 9: EC50 of β-arrestin-1 recruitment to ACKR3, HEK cells:
YGGFMRRVGRPEWWMDYQKRYG [BAM22] :: 23.2
YGGFMRRV-NH2 [Adrenorphin] :: 72.6
YGGFLRRQFKVVT [Dynorphin B] :: 673
FGGFTGARKSARK-NH2 (also: ψ(CH2-NH) bond between Phe1 and Gly2) [[Phe1Ψ(CH2-NH)-gly2]nociceptin-(1-13)-NH2] :: 3760

Kindly review the next binder as well.
Reported Supplementary Table 9: EC50 of β-arrestin-1 recruitment to ACKR3, HEK cells ( YGGFLRRIRPKLKWDNQ [Dynorphin A] ) = 110
